experiment: Metabolic stability in human liver microsomes; format: in vitro ADME; settings: 1 μM compound, 0.5 mg/mL protein, projected hepatic clearance, well-stirred model
value kind: Human liver microsomes CLhep (mL/min/kg)

// worked examples, Human liver microsomes CLhep included
**Q:** Can you share its Human liver microsomes CLhep? I mean this molecule: CCNc1nc(Nc2cc(C(C)(C)C#N)nn2C2CC2)ncc1C(F)(F)F
**A:** 2.237

**Q:** Can you share its Human liver microsomes CLhep? I mean this molecule: CCNc1nc(Nc2cn(C3(C)CCOC3=O)nc2C2CC2)ncc1Br (single isomer, unassigned)
**A:** 16.508

A: CCNc1nc(Nc2cn(C3(C)CCOC3=O)nc2C2CC2)ncc1C(F)(F)F (single isomer, unassigned)
B: [2H]C([2H])([2H])n1nc(C(C)(C)n2nccn2)cc1Nc1ncc(C(F)(F)F)c(NC2CC2)n1
**Q:** Would you mind telling me which has the lower recorded Human liver microsomes CLhep between A and B ? # reply format: chosen label
**A:** B

* * *

biological target: MDR1 (P-glycoprotein) (Homo sapiens (Human)); assay: MDR1-MDCK permeability, bidirectional assay; type: in vitro ADME; conditions: dog, MDR1-MDCK cells, monolayer efflux ratio, pH 7.4, read-out: MDR1 ER
Sequence (P08183 whole entry): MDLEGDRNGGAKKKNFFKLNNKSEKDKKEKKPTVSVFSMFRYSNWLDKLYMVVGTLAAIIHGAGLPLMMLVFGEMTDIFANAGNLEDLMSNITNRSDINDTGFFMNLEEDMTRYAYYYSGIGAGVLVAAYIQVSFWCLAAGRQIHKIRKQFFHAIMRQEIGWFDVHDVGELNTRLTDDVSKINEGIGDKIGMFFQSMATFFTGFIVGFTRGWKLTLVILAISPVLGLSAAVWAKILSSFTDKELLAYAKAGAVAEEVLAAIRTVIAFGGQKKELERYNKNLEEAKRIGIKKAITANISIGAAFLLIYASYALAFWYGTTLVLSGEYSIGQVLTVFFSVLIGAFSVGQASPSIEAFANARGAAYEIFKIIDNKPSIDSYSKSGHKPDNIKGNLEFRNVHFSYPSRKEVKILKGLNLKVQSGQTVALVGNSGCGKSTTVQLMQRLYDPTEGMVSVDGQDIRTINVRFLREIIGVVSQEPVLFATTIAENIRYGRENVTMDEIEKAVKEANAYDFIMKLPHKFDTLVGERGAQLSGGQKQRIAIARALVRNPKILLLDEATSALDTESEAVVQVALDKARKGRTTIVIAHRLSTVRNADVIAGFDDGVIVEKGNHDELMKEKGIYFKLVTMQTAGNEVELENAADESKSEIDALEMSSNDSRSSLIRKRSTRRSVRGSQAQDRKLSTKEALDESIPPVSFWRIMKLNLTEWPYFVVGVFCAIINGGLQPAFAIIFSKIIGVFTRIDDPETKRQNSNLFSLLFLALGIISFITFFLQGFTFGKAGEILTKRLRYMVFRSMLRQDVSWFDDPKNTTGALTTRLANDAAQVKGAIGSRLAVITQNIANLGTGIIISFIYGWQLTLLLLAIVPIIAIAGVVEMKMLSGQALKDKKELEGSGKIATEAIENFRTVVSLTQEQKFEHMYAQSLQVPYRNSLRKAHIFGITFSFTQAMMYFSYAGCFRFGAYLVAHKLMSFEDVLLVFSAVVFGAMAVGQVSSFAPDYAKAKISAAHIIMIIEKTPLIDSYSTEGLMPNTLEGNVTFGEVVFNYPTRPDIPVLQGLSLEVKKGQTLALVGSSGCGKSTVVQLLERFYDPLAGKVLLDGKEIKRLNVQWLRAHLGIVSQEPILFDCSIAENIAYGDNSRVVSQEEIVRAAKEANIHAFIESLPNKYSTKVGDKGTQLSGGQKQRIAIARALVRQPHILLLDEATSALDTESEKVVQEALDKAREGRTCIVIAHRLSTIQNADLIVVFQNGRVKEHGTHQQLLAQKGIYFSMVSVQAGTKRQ
value kind: efflux ratio at 1 μM

// worked examples, efflux ratio at 1 μM included
**Q:** Can you share its efflux ratio at 1 μM? I mean this compound: CCNc1nc(Nc2cc(C3(C)CCn4ncnc43)nn2C2CC2)ncc1C(F)(F)F (single isomer, unassigned) [Compound 172]
**A:** 42

**Q:** Can you share its efflux ratio at 1 μM? I mean this compound: CCNc1nc(Nc2cnn(C3CC(C#N)C3)c2C)ncc1C(F)(F)F (stereo not shown) [Compound 27]
**A:** 0.88

**Q:** Can you share its efflux ratio at 1 μM? I mean this compound: CCNc1nc(Nc2cc(C(C)(C)n3nccn3)nn2C2CC2)ncc1C(F)(F)F [Compound 78]
**A:** 2

**Q:** Can you share its efflux ratio at 1 μM? I mean this compound: [2H]C([2H])([2H])n1nc(C(C)(C)n2nccn2)cc1Nc1ncc(C(F)(F)F)c(NCC)n1 [Compound 34]
**A:** 4.8

**Q:** Can you share its efflux ratio at 1 μM? I mean this compound: CCNc1nc(Nc2cn(C(C)(C)C#N)nc2C2CC2)ncc1C(F)(F)F [Compound 118]
**A:** 0.83

I: [2H]C([2H])([2H])n1nc(C(C)(C)n2nccn2)cc1Nc1ncc(C(F)(F)F)c(NC2CC2)n1 [Compound 68]
II: CNc1nc(Nc2cn(C(C)(C)c3ncn(C)n3)nc2C)ncc1C(F)(F)F [Compound 218]
**Q:** Of I and II , which one carries the higher reported efflux ratio at 1 μM? # reply format: chosen label
**A:** II

* * *

The reader will find reported IC50 values listed item by item below.
target: LRRK2 G2019S enzyme (Homo sapiens (Human), UniProt Q5S007, G2019S); test: LRRK2 G2019S TR-FRET biochemical assay (LRRKtide substrate); details: 134 μM ATP
Sequence (Q5S007 whole entry G2019S): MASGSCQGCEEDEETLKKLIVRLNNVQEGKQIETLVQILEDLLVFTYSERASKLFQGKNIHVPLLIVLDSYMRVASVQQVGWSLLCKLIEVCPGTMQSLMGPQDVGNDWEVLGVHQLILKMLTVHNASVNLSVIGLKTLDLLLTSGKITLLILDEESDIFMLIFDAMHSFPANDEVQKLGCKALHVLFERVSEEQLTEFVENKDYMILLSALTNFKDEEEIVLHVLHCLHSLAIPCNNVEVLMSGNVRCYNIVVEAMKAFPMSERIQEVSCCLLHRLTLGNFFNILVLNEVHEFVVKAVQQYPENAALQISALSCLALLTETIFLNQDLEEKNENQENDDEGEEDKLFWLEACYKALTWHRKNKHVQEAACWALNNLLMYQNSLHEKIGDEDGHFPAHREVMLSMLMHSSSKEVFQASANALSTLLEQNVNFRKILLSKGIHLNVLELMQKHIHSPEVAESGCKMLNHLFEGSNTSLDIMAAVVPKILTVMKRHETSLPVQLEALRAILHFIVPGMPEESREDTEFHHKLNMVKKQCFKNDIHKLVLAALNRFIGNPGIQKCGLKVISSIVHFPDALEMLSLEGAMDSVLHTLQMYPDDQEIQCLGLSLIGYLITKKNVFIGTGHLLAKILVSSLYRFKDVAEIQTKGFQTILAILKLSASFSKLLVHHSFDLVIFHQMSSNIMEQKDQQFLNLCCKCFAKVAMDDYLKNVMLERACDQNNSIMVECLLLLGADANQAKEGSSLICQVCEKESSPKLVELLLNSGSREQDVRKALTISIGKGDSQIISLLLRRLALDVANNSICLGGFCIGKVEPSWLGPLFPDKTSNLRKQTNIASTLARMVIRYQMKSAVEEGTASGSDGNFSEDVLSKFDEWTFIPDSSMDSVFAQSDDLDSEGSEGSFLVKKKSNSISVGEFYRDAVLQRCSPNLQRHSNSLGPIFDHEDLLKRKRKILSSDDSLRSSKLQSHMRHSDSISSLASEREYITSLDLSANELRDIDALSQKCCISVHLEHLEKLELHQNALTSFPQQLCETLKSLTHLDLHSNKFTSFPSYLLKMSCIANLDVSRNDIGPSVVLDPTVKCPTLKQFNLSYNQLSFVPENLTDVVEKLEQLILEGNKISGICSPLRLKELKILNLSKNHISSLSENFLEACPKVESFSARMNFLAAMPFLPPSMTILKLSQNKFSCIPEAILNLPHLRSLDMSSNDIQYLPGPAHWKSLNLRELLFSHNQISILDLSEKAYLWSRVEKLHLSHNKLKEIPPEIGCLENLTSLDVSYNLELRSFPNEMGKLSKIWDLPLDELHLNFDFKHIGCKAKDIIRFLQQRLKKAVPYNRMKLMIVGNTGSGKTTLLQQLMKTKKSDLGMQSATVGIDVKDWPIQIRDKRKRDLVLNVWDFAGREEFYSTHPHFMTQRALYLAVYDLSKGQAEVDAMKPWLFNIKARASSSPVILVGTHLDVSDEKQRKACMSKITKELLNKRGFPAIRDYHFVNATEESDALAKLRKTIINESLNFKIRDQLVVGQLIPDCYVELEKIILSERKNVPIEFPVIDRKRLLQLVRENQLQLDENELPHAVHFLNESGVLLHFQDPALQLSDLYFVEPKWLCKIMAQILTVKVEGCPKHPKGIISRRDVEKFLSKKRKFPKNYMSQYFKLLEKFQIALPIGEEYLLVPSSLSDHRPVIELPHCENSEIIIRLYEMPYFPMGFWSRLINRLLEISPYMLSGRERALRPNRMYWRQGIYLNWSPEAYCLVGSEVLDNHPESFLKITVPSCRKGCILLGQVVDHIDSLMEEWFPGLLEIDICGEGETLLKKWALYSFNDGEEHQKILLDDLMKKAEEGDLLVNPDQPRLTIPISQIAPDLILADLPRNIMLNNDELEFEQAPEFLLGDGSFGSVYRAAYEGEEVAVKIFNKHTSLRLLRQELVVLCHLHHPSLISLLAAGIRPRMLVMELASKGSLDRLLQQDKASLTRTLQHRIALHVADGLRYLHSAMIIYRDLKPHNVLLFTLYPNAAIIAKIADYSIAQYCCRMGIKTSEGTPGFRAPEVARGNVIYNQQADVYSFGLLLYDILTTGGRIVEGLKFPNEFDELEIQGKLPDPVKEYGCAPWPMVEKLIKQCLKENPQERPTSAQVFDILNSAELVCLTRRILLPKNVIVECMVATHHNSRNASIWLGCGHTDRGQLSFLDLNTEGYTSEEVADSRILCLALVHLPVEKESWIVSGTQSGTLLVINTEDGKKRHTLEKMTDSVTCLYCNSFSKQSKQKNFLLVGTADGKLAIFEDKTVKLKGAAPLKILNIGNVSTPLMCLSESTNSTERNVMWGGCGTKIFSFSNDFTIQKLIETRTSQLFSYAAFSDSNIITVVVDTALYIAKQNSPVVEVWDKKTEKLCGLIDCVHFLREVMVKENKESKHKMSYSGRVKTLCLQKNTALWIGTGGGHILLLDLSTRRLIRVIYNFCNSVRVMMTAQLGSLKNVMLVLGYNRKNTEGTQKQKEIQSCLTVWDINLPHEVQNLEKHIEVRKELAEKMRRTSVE

// worked examples, IC50 included
**Q:** Can you share its IC50? I mean this compound: Cc1nn(C(C)(C)C#N)cc1Nc1ncc(C(F)(F)F)c(NC2C3CC2C3)n1 (stereo not shown)
**A:** < 30 nM

**Q:** Can you share its IC50? I mean this compound: [2H]C([2H])([2H])C([2H])([2H])n1nc(C(C)(C)n2nccn2)cc1Nc1ncc(C(F)(F)F)c(NCC)n1
**A:** < 30 nM

**Q:** Can you share its IC50? I mean this compound: CNc1nc(Nc2cc(C3(C)CCOC3=O)nn2C2CC2)ncc1C(F)(F)F (stereo not shown)
**A:** < 30 nM

**Q:** Can you share its IC50? I mean this compound: CCNc1nc(Nc2cc(C(C)(C)n3nccn3)nn2CC)ncc1C(F)(F)F
**A:** < 30 nM

**Q:** Can you share its IC50? I mean this compound: [2H]C([2H])([2H])n1nc(Nc2ncc(C(F)(F)F)c(NCC)n2)cc1C(C)(C)c1ncco1
**A:** < 30 nM

---
**Q:** Can you share its IC50? I mean this compound: COc1nc(Nc2cn(Cc3cc[nH]n3)nc2C2CC2)ncc1Br
**A:** < 30 nM

**Q:** Can you share its IC50? I mean this compound: [2H]C([2H])([2H])N1CCC(n2cc(Nc3ncc(C(F)(F)F)c(NCC)n3)c(C)n2)(C([2H])([2H])[2H])C1=O (single isomer, unassigned) [Compound 24]
**A:** < 30 nM
